tgt: Mtb GuaB2 (Mycobacterium tuberculosis)
Sequence (P9WKI7 whole entry, looked up): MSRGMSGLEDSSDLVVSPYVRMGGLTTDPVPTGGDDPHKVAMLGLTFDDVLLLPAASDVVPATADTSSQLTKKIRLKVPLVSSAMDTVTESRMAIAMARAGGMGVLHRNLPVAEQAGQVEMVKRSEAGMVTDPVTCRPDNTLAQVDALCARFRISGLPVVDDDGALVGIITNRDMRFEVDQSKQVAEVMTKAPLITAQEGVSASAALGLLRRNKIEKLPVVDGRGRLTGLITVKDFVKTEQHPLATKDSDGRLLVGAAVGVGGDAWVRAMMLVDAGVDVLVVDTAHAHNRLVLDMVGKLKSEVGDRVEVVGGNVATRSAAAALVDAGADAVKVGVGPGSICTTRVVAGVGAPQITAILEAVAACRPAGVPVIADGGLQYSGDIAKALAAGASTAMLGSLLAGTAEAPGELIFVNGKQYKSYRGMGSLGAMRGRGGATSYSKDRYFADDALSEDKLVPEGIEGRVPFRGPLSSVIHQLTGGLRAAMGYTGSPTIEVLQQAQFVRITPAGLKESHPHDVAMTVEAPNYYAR
runDescription: biochemical
experimentalConditions: Ki, Mtb GuaB2, IMP as the substrate
experimentalEndpoint: pKi
In plain terms, pKi is the concentration in mol/L turned into minus its base-10 logarithm.

Recorded pKi for O=C(C1CCCCC1)N1CCN(S(=O)(=O)c2cccc3cnccc23)CC1 [VCC234718] , please?
6.92

====

experimentalEndpoint: pIC50
In plain terms, pIC50 is the concentration in mol/L turned into minus its base-10 logarithm.

GET /values?readout=pIC50&system=human ERG channel (Homo sapiens, UniProt Q12809)&item= O=C(C1CCCCC1)N1CCN(S(=O)(=O)c2cccc3cnccc23)CC1 [VCC234718]
4.86
